Data credit: BigSolDB 2.1

# stated-conditions: in ethyl acetate, 298.15 K
readout-name: solubility (mole fraction)
Would you mind answering with just the numeric figure?

Reported solubility (mole fraction) for O=[N+]([O-])c1c(Cl)cc(Cl)c([N+](=O)[O-])c1Cl : what is it?
0.116

* * *

# stated-conditions: in ethanol, 303.15 K
readout-name: solubility (mole fraction)

Reported solubility (mole fraction) for O=[N+]([O-])c1c(Cl)cc(Cl)c([N+](=O)[O-])c1Cl : what is it?
0.00831

* * *

# stated-conditions: in 1,2-dichloroethane, 298.15 K
readout-name: solubility (mole fraction)
Would you mind answering with just the numeric figure?

Reported solubility (mole fraction) for O=[N+]([O-])c1c(Cl)cc(Cl)c([N+](=O)[O-])c1Cl : what is it?
0.0961
